- target-of-assay: UniProt:P33261
- Sequence (P33261 whole entry): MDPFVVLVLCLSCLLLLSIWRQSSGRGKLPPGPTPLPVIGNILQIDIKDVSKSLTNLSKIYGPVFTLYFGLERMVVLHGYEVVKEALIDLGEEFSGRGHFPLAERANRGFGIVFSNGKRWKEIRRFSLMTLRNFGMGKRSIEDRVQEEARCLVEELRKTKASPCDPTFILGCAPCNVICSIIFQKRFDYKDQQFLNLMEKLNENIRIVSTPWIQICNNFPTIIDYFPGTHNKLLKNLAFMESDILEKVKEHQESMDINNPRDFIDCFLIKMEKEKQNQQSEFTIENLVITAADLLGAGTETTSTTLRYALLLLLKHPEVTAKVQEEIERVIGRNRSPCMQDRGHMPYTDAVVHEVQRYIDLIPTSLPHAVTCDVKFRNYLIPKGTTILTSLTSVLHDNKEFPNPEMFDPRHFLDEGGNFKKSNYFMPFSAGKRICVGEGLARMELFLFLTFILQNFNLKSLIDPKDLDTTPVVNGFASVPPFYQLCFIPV
pIC50: −log10 of the molar value.
observation-type: pIC50

## Task What does the record list as pIC50 for COC(=O)Nc1c(N)nc(-c2nn(Cc3ccccc3F)c3ncc(F)cc23)nc1N [VERICIGUAT] ?
## Result < 4.30

---

Listed below: log10 MEC values for each entry.
- target-of-assay: Guanylate cyclase soluble subunit alpha-1 (Rattus norvegicus)
- assay-name: Stimulation of rat recombinant sGCalpha1 subunit expressed in CHO cells using alpha-[32P]GTP as substrate assessed as >=3 fold increase in [32P]cGMP formation after 10 mins by radioimmunoassay
- Format: cell-based
Could you please treat all values as log10 of MEC in µM?

Recorded results for 5 molecules are shown here.
Nc1nc(-c2nn(Cc3ccccc3F)c3ncccc23)nc(N)c1NC(=O)OC1CCC1
-0.70
COC(=O)N(CCO)c1c(N)nc(-c2nn(Cc3ccccc3F)c3ncccc23)nc1N
-0.52
Nc1nc(-c2nn(Cc3ccccc3F)c3ncccc23)nc(N)c1NC(=O)OC1COC1
0.36
CC(C)OC(=O)Nc1c(N)nc(-c2nn(Cc3ccccc3F)c3ncccc23)nc1N
-0.10
Nc1nc(-c2nn(Cc3ccccc3F)c3ncccc23)nc(N)c1N1CCOC1=O
-0.52

## Task I would be grateful if you could share the reported log10 MEC for Nc1nc(-c2nn(Cc3ccccc3F)c3ncccc23)nc(N)c1NC(=O)OCC1CC1 .
## Result -0.70

## Task // next record COC(=O)Nc1c(N)nc(-n2nc(Cc3ccccc3F)c3ncccc32)nc1N
## Result 0.08

---

- assay-name: Clearance in rat hepatocytes at 1 uM up to 90 mins by LC-MS/MS analysis
- Assay type: ADME, cell-based, Hepatocyte
observation-type: CLhep predicted at 1 µM (mL/min/kg)
Reply with just the number (in mL/min/kg).

Study these solved cases before continuing.
Nc1nc(-c2nn(Cc3ccccc3F)c3ncccc23)nc(N)c1N1CCOC1=O
6.67
COC(=O)Nc1c(N)nc(-c2nn(Cc3ccccc3F)c3ncc(F)cc23)nc1N
1.67

## Task // CLhep predicted at 1 µM lookup, key: COC(=O)N(CCO)c1c(N)nc(-c2nn(Cc3ccccc3F)c3ncccc23)nc1N
## Result 61.7

## Task How about this compound: Nc1nc(-c2nn(Cc3ccccc3F)c3ncccc23)nc(N)c1NC(=O)OCC1CC1
## Result 23.3

---

- target-of-assay: Cytochrome P450 3A4 (Homo sapiens)
- assay-name: Inhibition of human liver microsomes CYP3A4 using midazolam as substrate
- Type: ADME
pIC50: −log10 of the molar value.
observation-type: pIC50

## Task May I ask what pIC50 has been recorded for COC(=O)Nc1c(N)nc(-c2nn(Cc3ccccc3F)c3ncc(F)cc23)nc1N [VERICIGUAT] ?
## Result < 4.30

---

- target-of-assay: Cytochrome P450 3A4 (Homo sapiens)
- assay-name: Inhibition of human liver microsomes CYP3A4 using midazolam as substrate preincubated with compound followed by substrate addition
- Format: ADME
observation-type: IC50

## Task Form: Entry = COC(=O)Nc1c(N)nc(-c2nn(Cc3ccccc3F)c3ncc(F)cc23)nc1N | System = Cytochrome P450 3A4 (Homo sapiens) | IC50 = ____
## Result > 50 µM

---

- assay-name: Volume of distribution at steady state in iv dosed Wistar rat after 24 hrs by LC-MS analysis
- Format: ADME, organism-based
- particulars: in vivo, read-out: Vdss
observation-type: Vd

COC(=O)Nc1c(N)nc(-c2nn(Cc3ccccc3F)c3ncc(F)cc23)nc1N
1 L/kg
COC(=O)N(C)c1c(N)nc(-c2nn(Cc3ccccc3F)c3ncccc23)nc1N
1.2 L/kg
COC(=O)Nc1c(N)nc(-n2nc(Cc3ccccc3F)c3ncc(F)cc32)nc1N
0.5 L/kg

## Task Recorded Vd for COC(=O)Nc1c(N)nc(-c2nc(Cc3ccccc3F)n3ncccc23)nc1N , please?
## Result 0.3 L/kg

---

- Tested on: Saphenous artery
- assay-name: Inhibition of phenylephrine-induced contractions in Chinchilla rabbit saphenous artery rings administered at the beginning of the last resting period of 28 mins
- Type: functional
- particulars: Oryctolagus cuniculus
observation-type: IC50 (µM)
Write the number in µM without appending the unit.

## Task Reported IC50, compound COC(=O)Nc1c(N)nc(-c2nn(Cc3ccccc3F)c3ncc(F)cc23)nc1N : ____
## Result 0.798

---

Recorded measurements of efflux ratio, one per entry
- assay-name: Efflux ratio of apparent permeability in human Caco2 cells
- Type: ADME, cell-based
- particulars: Caco-2
Answer with the value's number alone.

## Task So what's the measured efflux ratio for this one? COC(=O)Nc1c(N)nc(-c2nn(Cc3ccccc3F)c3ncccc23)nc1N
## Result 5

## Task Input Nc1nc(-c2nn(Cc3ccccc3F)c3ncccc23)nc(N)c1NC(=O)OC1CCC1
## Result 25

## Task Further, for Nc1nc(-c2nn(Cc3ccccc3F)c3ncccc23)nc(N)c1NC(=O)OC1COC1 ?
## Result 74

---

- System: Artery
- assay-name: Inhibition of U46619-induced contractions in porcine coronary artery rings
- Type: functional
- particulars: Sus scrofa
observation-type: IC50 (nM)
The reply should be a number in nM, with the unit left off.

## Task Data request, read-out IC50, for COC(=O)Nc1c(N)nc(-c2nn(Cc3ccccc3F)c3ncc(F)cc23)nc1N
## Result 956

---

- Test system: Aorta
- assay-name: Inhibition of phenylephrine-induced contractions in Chinchilla rabbit aortic rings administered at the beginning of the last resting period of 28 mins
- Type: functional
- particulars: Oryctolagus cuniculus
observation-type: pIC50
FYI, pIC50 means -log10 of a concentration in mol per litre.

## Task What value of pIC50 has been recorded for this entry: COC(=O)Nc1c(N)nc(-c2nn(Cc3ccccc3F)c3ncc(F)cc23)nc1N
## Result 6.16

---

Protein target, amino acids: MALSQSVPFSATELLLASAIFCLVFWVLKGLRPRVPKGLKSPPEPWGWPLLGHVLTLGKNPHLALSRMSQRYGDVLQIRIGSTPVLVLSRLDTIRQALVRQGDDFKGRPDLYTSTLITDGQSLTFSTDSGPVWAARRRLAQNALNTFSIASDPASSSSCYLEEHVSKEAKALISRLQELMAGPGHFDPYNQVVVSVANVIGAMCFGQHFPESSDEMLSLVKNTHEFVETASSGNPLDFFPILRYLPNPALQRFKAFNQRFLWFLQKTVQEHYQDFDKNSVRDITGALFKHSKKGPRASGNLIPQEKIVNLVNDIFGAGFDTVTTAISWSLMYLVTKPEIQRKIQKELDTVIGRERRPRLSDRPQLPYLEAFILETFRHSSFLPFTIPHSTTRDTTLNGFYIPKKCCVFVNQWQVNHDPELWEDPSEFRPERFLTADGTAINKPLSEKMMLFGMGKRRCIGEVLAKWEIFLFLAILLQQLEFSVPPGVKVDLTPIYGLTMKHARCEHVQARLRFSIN
observation-type: IC50

## Task Quick check: IC50 of COC(=O)Nc1c(N)nc(-c2nn(Cc3ccccc3F)c3ncc(F)cc23)nc1N ?
## Result > 50 µM

---

- target-of-assay: Cytochrome P450 2B6 (Homo sapiens, UniProt P20813)
- Sequence (P20813 whole entry): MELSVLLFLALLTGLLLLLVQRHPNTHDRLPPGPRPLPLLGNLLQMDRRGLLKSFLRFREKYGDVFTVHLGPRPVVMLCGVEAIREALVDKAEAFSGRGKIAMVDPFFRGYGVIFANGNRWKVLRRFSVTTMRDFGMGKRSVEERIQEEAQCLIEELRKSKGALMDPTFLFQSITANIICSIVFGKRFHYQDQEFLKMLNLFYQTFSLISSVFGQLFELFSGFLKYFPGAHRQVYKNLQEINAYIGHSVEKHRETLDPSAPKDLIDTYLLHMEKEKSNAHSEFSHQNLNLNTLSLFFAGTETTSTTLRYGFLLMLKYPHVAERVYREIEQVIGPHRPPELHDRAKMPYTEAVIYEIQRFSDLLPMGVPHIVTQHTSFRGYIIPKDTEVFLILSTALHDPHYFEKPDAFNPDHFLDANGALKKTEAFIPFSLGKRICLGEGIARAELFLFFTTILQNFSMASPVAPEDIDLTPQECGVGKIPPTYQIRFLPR
observation-type: IC50

## Task // query IC50 value for entry COC(=O)Nc1c(N)nc(-c2nn(Cc3ccccc3F)c3ncc(F)cc23)nc1N [VERICIGUAT]
## Result > 50 µM

---

- target-of-assay: Cytochrome P450 3A4 (Homo sapiens, UniProt P08684)
- Sequence (P08684 whole entry): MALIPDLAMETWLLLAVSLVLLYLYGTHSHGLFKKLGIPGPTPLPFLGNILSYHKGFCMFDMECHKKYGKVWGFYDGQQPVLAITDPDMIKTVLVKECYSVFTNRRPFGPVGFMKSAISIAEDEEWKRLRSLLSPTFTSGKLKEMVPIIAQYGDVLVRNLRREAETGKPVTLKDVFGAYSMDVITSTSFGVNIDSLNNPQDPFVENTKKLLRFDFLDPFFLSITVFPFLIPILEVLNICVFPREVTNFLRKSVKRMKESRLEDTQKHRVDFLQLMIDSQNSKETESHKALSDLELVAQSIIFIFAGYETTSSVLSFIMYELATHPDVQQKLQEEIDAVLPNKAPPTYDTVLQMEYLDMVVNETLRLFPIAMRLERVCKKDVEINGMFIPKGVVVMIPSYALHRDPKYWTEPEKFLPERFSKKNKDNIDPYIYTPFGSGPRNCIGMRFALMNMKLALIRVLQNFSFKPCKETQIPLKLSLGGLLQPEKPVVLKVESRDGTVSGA
- assay-name: Inhibition of human liver microsomes CYP3A4 using testosterone as substrate
- Format: ADME
pIC50: −log10 of the molar value.
observation-type: pIC50

## Task Sample COC(=O)Nc1c(N)nc(-c2nn(Cc3ccccc3F)c3ncc(F)cc23)nc1N [VERICIGUAT] — what was its pIC50?
## Result < 4.30

---

- assay-name: Clearance in rat hepatocytes at 1 uM up to 90 mins by LC-MS/MS analysis
- Format: ADME, cell-based, Hepatocyte
observation-type: CLhep predicted at 1 µM

Nc1nc(-c2nn(Cc3ccccc3F)c3ncccc23)nc(N)c1NC(=O)OC1CCC1
1.4 L/h/kg
COC(=O)N(CC(F)(F)F)c1c(N)nc(-c2nn(Cc3ccccc3F)c3ncccc23)nc1N
0.9 L/h/kg
COC(=O)N(CC(F)F)c1c(N)nc(-c2nn(Cc3ccccc3F)c3ncccc23)nc1N
0.4 L/h/kg
COC(=O)N(Cc1ccccc1F)c1c(N)nc(-c2nn(Cc3ccccc3F)c3ncccc23)nc1N
3.2 L/h/kg
CCN(C(=O)OC)c1c(N)nc(-c2nn(Cc3ccccc3F)c3ncccc23)nc1N
0.7 L/h/kg
COC(=O)Nc1c(N)nc(-n2nc(Cc3ccccc3F)c3ncccc32)nc1N
< 0.1 L/h/kg

## Task Could you tell me which CLhep predicted at 1 µM is on file for CC1(C)CN(c2c(N)nc(-c3nn(Cc4ccccc4F)c4ncccc34)nc2N)C(=O)O1 ?
## Result 1.3 L/h/kg

## Task Request: COC(=O)N(Cc1cccc(F)c1)c1c(N)nc(-c2nn(Cc3ccccc3F)c3ncccc23)nc1N
## Result 3.2 L/h/kg

## Task Now consider COC(=O)N(C)c1c(N)nc(-c2nn(Cc3ccccc3F)c3ncccc23)nc1N and answer again.
## Result 0.2 L/h/kg
